# system_under_test: T1, wild-type human integrin α5β1 (octyl β-D-glucopyranoside preparation) (human, UniProt P08648 42-1049; P05556 21-798)
# T1 construct: From Immunological Sciences; also called a5p1; asp1
# assay_info: direct binding to integrin-coated microtiter plates, one site specific binding fit
*1 amine or outer side, *2 acyl side, *3 side chain or, on linkers, in order; H or OH if unused. Where no end group is shown, it is not given here. [ ]: non-standard residue; d: D form. The star is where a group is joined. Biotin = O=C1N[C@H]2[C@H](CS[C@H]2CCCCC(=O)*)N1; βAsp = O=C(O)[C@H](CC(=O)[*:2])N[*:1]
property_measured: Kd (nM)
Please state the figure in nM; there is no need to write the unit.

Ask: Which Kd is listed for Ac-C[βAsp]GRCGVRSSSRTPSDK(Biotin)Y (also: in complex with streptavidin-peroxidase conjugate) ?
Reply: 1.3
